target_of_assay: CDK2/CycE (Homo sapiens)
Construct: GST
assay_summary: CDK2/CycE kinase assay (TR-FRET)
applied_conditions: avg, read-out: CDK2 avg (IC50 [mol/l])
Experimental: CDK2/CycE -inhibitory activity of compounds of the present invention was quantified employing the CDK2/CycE TR-FRET assay as described in the following paragraphs. […] The resulting mixture was incubated 1 h at 22° C. to allow the formation of complex between the phosphorylated biotinylated peptide and the detection reagents. Subsequently the amount of phosphorylated substrate was evaluated by measurement of the resonance energy transfer from the Eu-chelate to the streptavidine-XL. […]
recorded_metric: IC50

> print(dat)
                                   compound  recorded.metric   result
1  Cc1nsc(Nc2cncc(C(F)(F)F)n2)c1C(=O)Nc1ccc(F)c(OC2CCN(CCC(F)(F)F)CC2)c1             IC50  ≥ 20 µM
2  Cc1nsc(Nc2ccc(C#N)cn2)c1C(=O)Nc1cccc(NC(=O)OC(C)(C)C)c1             IC50  > 20 µM

Looking for the measured IC50 of Cc1nsc(Nc2cnc(C(F)(F)F)cn2)c1C(=O)Nc1ccc(OC2CCN(CCC(F)(F)F)CC2)nc1 [Example 426] , can you help? ≥ 20 µM

Fill in: IC50 of Cc1nsc(Nc2cnc(C(F)(F)F)cn2)c1C(=O)Nc1ccc(C(=O)NCCN2CCCC(F)(F)C2)cc1 is ___ > 20 µM

---

Measured pIC50, listed per entry for reference.
System: HeLa
assay_summary: Proliferation assay (crystal violet), HeLa
Format: cell-based
applied_conditions: Homo sapiens, HeLa, 96 h, HeLa cells; 4 days incubation; crystal violet staining; read-out: IC50 inhibition of proliferation, HeLa
Please note pIC50 is a logarithmic value: minus log10 of concentration in mol/L. Answer with that number alone.

Below are worked cases with known answers.
> print(dat)
                                   compound  readout.number
1  Cc1nsc(Nc2cnc(C(F)(F)F)cn2)c1C(=O)Nc1ccc(OC2CCN(CCF)CC2)nc1 [Example 7]            6.24
2  Cc1nsc(Nc2cnc(C(F)(F)F)cn2)c1C(=O)Nc1ccc(O[C@H]2CCN(CCC(F)(F)F)C[C@@H]2F)nc1 [Example 364]            6.54
3  Cc1nsc(Nc2cncc(C(F)(F)F)n2)c1C(=O)Nc1ccc(OC2CCN(CC(F)F)CC2)c(F)c1 [Example 224]            6.49
4  COC(=O)c1cccc(NC(=O)c2c(C)nsc2Nc2cnc3ccccc3n2)c1 [Example 50]            5.72
5  Cc1nsc(Nc2cnc(C(F)(F)F)cn2)c1C(=O)Nc1ccc(OCCN)nc1 [Example 197]            5.12
6  Cc1nsc(Nc2cnc3ccccc3n2)c1C(=O)Nc1cccc(C(=O)N(C)CCc2ccncc2)c1 [Example 82]            5.00
7  Cc1nsc(Nc2cnc(C(F)(F)F)cn2)c1C(=O)Nc1ccc(F)c(OCCCN(C)CCC(F)(F)F)c1 [Example 303]            6.40
8  Cc1nsc(Nc2cnc(C(F)(F)F)cn2)c1C(=O)Nc1ccc(OCCN(C)C(=O)OC(C)(C)C)nc1 [Example 429]            6.59

So what's the measured pIC50 for this one? Cc1nsc(Nc2cc(C#N)ccn2)c1C(=O)Nc1ccc(OC2CCCNC2)nc1 (stereo not shown) [Example 35] 5.00

Fill blank: measured pIC50 of the compound Cc1nsc(Nc2cnc(C(F)(F)F)cn2)c1C(=O)Nc1ccc(OCC2CCN(CCC(F)(F)F)C2)nc1 (stereo not shown) [Example 124] is ____. 6.44

Item under review: Cc1nsc(Nc2cnc(C(F)(F)F)cn2)c1C(=O)Nc1ccc(F)c(OC[C@@H]2CCCN(CC(F)(F)F)C2)c1 [Example 342] . Reported pIC50? 6.33

For the compound shown here, Cc1nsc(Nc2ccc(C#N)cn2)c1C(=O)Nc1cccc(C(=O)OC(C)(C)C)c1 [Example 240] , give the reported pIC50. 6.12

Need pIC50 of Cc1nsc(Nc2cncc(C(F)(F)F)n2)c1C(=O)Nc1ccc(F)c(OC2CCN(CCF)CC2)c1 [Example 269] , thanks. 6.08

Quick one: pIC50 for Cc1nsc(Nc2ccc(C#N)cn2)c1C(=O)Nc1ccc(OC2CCCN(CCF)C2)nc1 (stereo not shown) [Example 38] ? 5.09
